Listed here: items and their measured PBM binding z-score.
# Tested on: PXR homodimer (NR concentration 270 nM)
# ASSAY NAME: PBM binding z-score (relative to random genomic background probes); higher = stronger binding; sequences stand for … in GC…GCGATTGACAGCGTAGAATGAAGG
PROPERTY: PBM binding z-score

> print(dat)
                        input.sequence             property  numeric.result
 1  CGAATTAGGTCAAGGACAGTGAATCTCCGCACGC  PBM binding z-score           0.205
 2  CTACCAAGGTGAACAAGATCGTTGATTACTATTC  PBM binding z-score          -0.209
 3  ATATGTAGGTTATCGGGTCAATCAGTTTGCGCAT  PBM binding z-score            3.23
 4  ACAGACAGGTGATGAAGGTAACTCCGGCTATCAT  PBM binding z-score            -0.1
 5  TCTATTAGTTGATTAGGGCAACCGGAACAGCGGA  PBM binding z-score           0.534
 6  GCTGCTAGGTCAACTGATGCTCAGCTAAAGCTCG  PBM binding z-score          -0.735
 7  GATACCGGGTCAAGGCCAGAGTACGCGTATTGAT  PBM binding z-score           0.124
 8  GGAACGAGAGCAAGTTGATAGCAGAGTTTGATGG  PBM binding z-score         0.00313
 9  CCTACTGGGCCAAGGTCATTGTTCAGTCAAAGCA  PBM binding z-score            1.49
10  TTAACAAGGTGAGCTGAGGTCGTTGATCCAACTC  PBM binding z-score           0.519
11  CATACAGGGTCAACTAGGCCAGAGTAGGGACGGC  PBM binding z-score           0.451
12  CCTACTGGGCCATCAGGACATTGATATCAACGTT  PBM binding z-score         -0.0909

----------
Listed here: items and their measured PBM binding z-score.
# Test system: RXRa DBDmut IVT, anti-RXR (DBD mutation: RXRa K156A/R161A, NR concentration 90 nM)
# ASSAY NAME: PBM binding z-score (relative to random genomic background probes); higher = stronger binding; sequences stand for … in GC…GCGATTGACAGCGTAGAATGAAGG
PROPERTY: PBM binding z-score

> print(dat)
                        input.sequence             property  numeric.result
 1  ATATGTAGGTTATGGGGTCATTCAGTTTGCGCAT  PBM binding z-score             2.9
 2  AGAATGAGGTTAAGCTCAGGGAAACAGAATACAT  PBM binding z-score            1.26
 3  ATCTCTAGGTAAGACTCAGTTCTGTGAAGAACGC  PBM binding z-score           0.193
 4  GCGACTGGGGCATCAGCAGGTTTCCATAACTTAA  PBM binding z-score           0.099
 5  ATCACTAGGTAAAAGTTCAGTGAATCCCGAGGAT  PBM binding z-score           0.717
 6  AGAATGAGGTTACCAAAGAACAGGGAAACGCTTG  PBM binding z-score           0.909
 7  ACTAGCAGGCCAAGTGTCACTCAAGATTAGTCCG  PBM binding z-score           0.117
 8  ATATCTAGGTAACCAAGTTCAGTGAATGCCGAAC  PBM binding z-score           0.824
 9  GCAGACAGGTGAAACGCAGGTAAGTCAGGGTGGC  PBM binding z-score          -0.846
10  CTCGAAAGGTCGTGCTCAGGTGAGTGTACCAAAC  PBM binding z-score            2.21
11  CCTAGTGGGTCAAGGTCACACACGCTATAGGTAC  PBM binding z-score            1.58
12  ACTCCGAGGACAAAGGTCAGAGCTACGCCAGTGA  PBM binding z-score            1.97
13  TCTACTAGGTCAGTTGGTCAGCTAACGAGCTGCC  PBM binding z-score            1.19
14  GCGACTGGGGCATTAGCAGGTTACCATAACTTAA  PBM binding z-score            0.29
15  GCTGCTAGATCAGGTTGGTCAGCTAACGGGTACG  PBM binding z-score          -0.411
16  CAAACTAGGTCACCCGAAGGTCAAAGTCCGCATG  PBM binding z-score            2.35
17  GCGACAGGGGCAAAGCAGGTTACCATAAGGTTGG  PBM binding z-score           0.664
18  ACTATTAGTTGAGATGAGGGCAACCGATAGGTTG  PBM binding z-score           0.642
19  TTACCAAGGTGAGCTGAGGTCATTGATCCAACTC  PBM binding z-score           0.946
20  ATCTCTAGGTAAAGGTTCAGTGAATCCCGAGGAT  PBM binding z-score           0.869
21  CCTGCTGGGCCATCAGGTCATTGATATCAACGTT  PBM binding z-score           0.287
22  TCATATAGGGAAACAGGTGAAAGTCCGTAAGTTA  PBM binding z-score            1.66
23  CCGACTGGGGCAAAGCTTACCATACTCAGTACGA  PBM binding z-score           0.525
24  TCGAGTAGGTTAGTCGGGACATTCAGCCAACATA  PBM binding z-score           0.327
25  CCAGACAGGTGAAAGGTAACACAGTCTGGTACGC  PBM binding z-score          -0.201
26  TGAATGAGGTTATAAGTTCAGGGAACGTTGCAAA  PBM binding z-score            1.49

----------
Listed here: items and their measured PBM binding z-score.
# Tested on: LXRb homodimer (NR concentration 270 nM)
# ASSAY NAME: PBM binding z-score (relative to random genomic background probes); higher = stronger binding; sequences stand for … in GC…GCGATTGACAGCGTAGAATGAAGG
PROPERTY: PBM binding z-score

> print(dat)
                        input.sequence                           subject.of.test  numeric.result
 1  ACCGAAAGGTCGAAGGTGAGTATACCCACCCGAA  LXRb homodimer (NR concentration 270 nM)           0.185
 2  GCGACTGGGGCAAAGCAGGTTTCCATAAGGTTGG  LXRb homodimer (NR concentration 270 nM)           -0.53
 3  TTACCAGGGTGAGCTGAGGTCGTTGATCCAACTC  LXRb homodimer (NR concentration 270 nM)           -1.42
 4  GCTAGTTGGTCAGTAAAAGGTCACACAACGGTCG  LXRb homodimer (NR concentration 270 nM)           0.685
 5  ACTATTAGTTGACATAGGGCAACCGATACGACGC  LXRb homodimer (NR concentration 270 nM)           0.719
 6  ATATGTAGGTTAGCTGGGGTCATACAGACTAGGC  LXRb homodimer (NR concentration 270 nM)           0.852
 7  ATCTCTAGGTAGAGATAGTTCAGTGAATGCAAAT  LXRb homodimer (NR concentration 270 nM)          0.0975
 8  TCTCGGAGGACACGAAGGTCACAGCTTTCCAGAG  LXRb homodimer (NR concentration 270 nM)          -0.279
 9  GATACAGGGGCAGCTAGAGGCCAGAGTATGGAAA  LXRb homodimer (NR concentration 270 nM)          -0.405
10  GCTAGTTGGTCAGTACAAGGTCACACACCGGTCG  LXRb homodimer (NR concentration 270 nM)           0.352
11  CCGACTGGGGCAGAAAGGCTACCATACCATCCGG  LXRb homodimer (NR concentration 270 nM)           -1.41
12  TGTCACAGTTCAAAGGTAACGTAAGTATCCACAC  LXRb homodimer (NR concentration 270 nM)           0.361
13  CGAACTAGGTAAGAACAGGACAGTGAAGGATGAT  LXRb homodimer (NR concentration 270 nM)          -0.626
14  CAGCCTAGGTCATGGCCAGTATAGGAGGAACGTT  LXRb homodimer (NR concentration 270 nM)          -0.552
15  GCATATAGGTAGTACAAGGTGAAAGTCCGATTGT  LXRb homodimer (NR concentration 270 nM)          -0.562
16  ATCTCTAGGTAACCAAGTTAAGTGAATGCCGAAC  LXRb homodimer (NR concentration 270 nM)           0.551
17  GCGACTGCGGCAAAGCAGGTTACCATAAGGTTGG  LXRb homodimer (NR concentration 270 nM)           -1.51
18  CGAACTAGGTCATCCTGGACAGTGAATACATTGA  LXRb homodimer (NR concentration 270 nM)           0.266
19  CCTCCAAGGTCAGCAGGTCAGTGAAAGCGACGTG  LXRb homodimer (NR concentration 270 nM)           0.111
20  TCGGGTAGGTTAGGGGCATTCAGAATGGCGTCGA  LXRb homodimer (NR concentration 270 nM)             1.8
21  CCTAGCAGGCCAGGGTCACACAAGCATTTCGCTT  LXRb homodimer (NR concentration 270 nM)          -0.795
22  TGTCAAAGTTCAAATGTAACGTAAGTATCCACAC  LXRb homodimer (NR concentration 270 nM)            3.48
23  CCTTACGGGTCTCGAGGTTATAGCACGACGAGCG  LXRb homodimer (NR concentration 270 nM)          -0.922
24  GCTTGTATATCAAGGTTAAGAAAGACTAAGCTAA  LXRb homodimer (NR concentration 270 nM)          -0.396
25  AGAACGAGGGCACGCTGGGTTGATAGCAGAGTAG  LXRb homodimer (NR concentration 270 nM)          -0.802
26  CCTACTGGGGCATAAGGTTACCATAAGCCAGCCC  LXRb homodimer (NR concentration 270 nM)          -0.859
